Form field: composite z-score (one value per entry).
# System: Sam68 (KHDRBS1)
# assayName: compounds binding KHDRBS1 protein – biochemical, small-molecule microarray, 635 nm fluorescence, primary screen (AID 1125);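 note: score merges 667 nm channel intensity with signal to noise over triplicate slides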
# condition: higher = more signal
Please give the numeric answer without any surrounding text.

molecule	experimentalTarget	reportedMetric	measuredResult
O=C1C2C=CC(C(O)C3CC=CCC3)N(n3cnnc3)C2C(=O)N1Cc1ccccc1 (stereo not given)	Sam68 (KHDRBS1)	composite z-score	0.185

Value of measured composite z-score for the entry Cn1c2c(c3ccccc31)C(=O)C1NC2C=CC1(C)C(=O)OCc1ccccc1 (stereo not given) : 1

The reported value for COCC1C2CC[C@H]3C(OCc4ccc(F)cc4C(F)(F)F)OC[C@]4(C)[C@H]3C2=C(CN4C(=O)OC(C)(C)C)[C@H](C)C1COC (stereo not given in full) in terms of composite z-score is 1.2

Notebook: Cc1ccccc1/C=C/C=O , composite z-score read as -1.35

The molecule listed as CN(C)CCCC[C@@H]1NC(=O)[C@@H]2C[C@H](C(=O)NCCCCCCN)[C@H](c3ccc(O)cc3)N2C1=O has a reported composite z-score of 1.31

According to the records, this molecule C[N+](C)(C)CCCC[C@@H]1NC(=O)[C@H]2C[C@@H](C(=O)O)[C@@H](c3cccc(OCCO)c3)N2C1=O displays composite z-score of 1.31

Briefly, composite z-score measured for CN1C(=O)C2C=CC(C(O)c3ccccc3)N(NC(=O)OC(C)(C)C)C2C1=O (stereo not given) : 1.01
